biological target: UniProt Q86WV6; assay: Activation of wild-type human STING expressed in HEK293T cells co-expressing IRF3-activated ISRE assessed as IRF3 reporter activation measured after 30 mins by luciferase reporter gene assay; assay type: cell-based
The compounds listed here are annotated with their EC50.
Report only the number, with the unit nM understood.

Recorded EC50, per entry:
{"columns": ["Structure Notation", "Test Target", "Scale Unit", "EC50"],
 "data": [
  ["CCC(CC)C(=O)OCO[P@]1(=O)OC[C@H]2O[C@@H](n3cnc4c(N)ncnc43)[C@H](F)[C@@H]2O[P@](=O)(OCOC(=O)C(CC)CC)OC[C@H]2O[C@@H](n3cnc4c(N)ncnc43)[C@H](F)[C@@H]2O1", "UniProt Q86WV6", "nM", 70],
  ["CC(C)(C)C(=O)OCO[P@@]1(=O)OC[C@H]2O[C@@H](n3cnc4c(N)ncnc43)[C@H](F)[C@@H]2O[P@](=O)(OCOC(=O)C(C)(C)C)OC[C@H]2O[C@@H](n3cnc4c(N)ncnc43)[C@H](F)[C@@H]2O1", "UniProt Q86WV6", "nM", 70],
  ["CCC(CC)C(=O)OCO[P@@]1(=O)OC[C@H]2O[C@@H](n3cnc4c(N)ncnc43)[C@H](F)[C@@H]2O[P@](=O)(OCOC(=O)C(CC)CC)OC[C@H]2O[C@@H](n3cnc4c(N)ncnc43)[C@H](F)[C@@H]2O1", "UniProt Q86WV6", "nM", 230]
]}

Now turn to the next compound.
Give recorded EC50. "CC(C)(C)C(=O)OCO[P@]1(=O)OC[C@H]2O[C@@H](n3cnc4c(N)ncnc43)[C@H](F)[C@@H]2O[P@](=O)(OCOC(=O)C(C)(C)C)OC[C@H]2O[C@@H](n3cnc4c(N)ncnc43)[C@H](F)[C@@H]2O1"
30

---

Recorded EC50 for the following compounds
biological target: Stimulator of interferon genes protein (Homo sapiens, UniProt Q86WV6, G230A/R293Q/R71H); experiment: Activation of human STING HAQ mutant expressed in digitonin treated HEK293T cells co-expressing IRF3-activated ISRE assessed as IRF3 reporter activation by luciferase reporter gene assay
Sequence (Q86WV6 whole entry R71H/G230A/R293Q): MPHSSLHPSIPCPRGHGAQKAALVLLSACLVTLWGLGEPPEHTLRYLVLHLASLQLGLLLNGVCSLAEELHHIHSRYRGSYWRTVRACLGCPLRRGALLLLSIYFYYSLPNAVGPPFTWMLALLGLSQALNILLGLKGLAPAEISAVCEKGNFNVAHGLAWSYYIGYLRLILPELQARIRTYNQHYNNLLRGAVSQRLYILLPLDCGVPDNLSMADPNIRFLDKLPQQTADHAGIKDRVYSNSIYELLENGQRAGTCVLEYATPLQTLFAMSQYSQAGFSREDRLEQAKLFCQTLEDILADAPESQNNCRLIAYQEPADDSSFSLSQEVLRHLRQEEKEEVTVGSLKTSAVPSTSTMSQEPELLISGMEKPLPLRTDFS
I'd appreciate it if you included the unit after the number.

{"columns": ["Structure Notation", "Test Target", "EC50"],
 "data": [
  ["Nc1ncnc2c1ncn2[C@@H]1O[C@@H]2COP(=O)(O)O[C@H]3[C@@H](F)[C@H](n4cnc5c(N)ncnc54)O[C@@H]3COP(=O)(O)O[C@H]2[C@H]1F", "Stimulator of interferon genes protein (Homo sapiens, UniProt Q86WV6, G230A/R293Q/R71H)", "0.13 µM"],
  ["Nc1ncnc2c1ncn2[C@@H]1O[C@@H]2CO[P@](=O)(S)O[C@H]3[C@@H](F)[C@H](n4cnc5c(N)ncnc54)O[C@@H]3COP(=O)(O)O[C@H]2[C@H]1F", "Stimulator of interferon genes protein (Homo sapiens, UniProt Q86WV6, G230A/R293Q/R71H)", "0.13 µM"],
  ["Nc1ncnc2c1ncn2[C@@H]1O[C@@H]2CO[P@@](=O)(S)O[C@H]3[C@@H](F)[C@H](n4cnc5c(N)ncnc54)O[C@@H]3CO[P@@](=O)(S)O[C@H]2[C@H]1F", "Stimulator of interferon genes protein (Homo sapiens, UniProt Q86WV6, G230A/R293Q/R71H)", "0.08 µM"]
]}

Please give the documented EC50 of "Nc1ncnc2c1ncn2[C@@H]1O[C@@H]2CO[P@@](=O)(S)O[C@H]3[C@@H](F)[C@H](n4cnc5c(N)ncnc54)O[C@@H]3CO[P@](=O)(S)O[C@H]2[C@H]1F"
0.05 µM

---

experiment: Potency index, ratio of test compound EC50 to prodrug EC50 for induction of INF-gamma production in healthy human PBMC incubated for 16 hrs; assay type: functional
Measured Metric: Ratio EC50
Give your answer as a number; write no unit.

Please review the entries below; each comes with its answer.
{"columns": ["Structure Notation", "Ratio EC50"],
 "data": [
  ["CC(C)(C)C(=O)OCO[P@]1(=O)OC[C@H]2O[C@@H](n3cnc4c(N)ncnc43)[C@H](F)[C@@H]2O[P@](=O)(OCOC(=O)C(C)(C)C)OC[C@H]2O[C@@H](n3cnc4c(N)ncnc43)[C@H](F)[C@@H]2O1", 148],
  ["CC(C)(C)C(=O)OCS[P@@]1(=O)OC[C@H]2O[C@@H](n3cnc4c(N)ncnc43)[C@H](F)[C@@H]2O[P@](=O)(SCOC(=O)C(C)(C)C)OC[C@H]2O[C@@H](n3cnc4c(N)ncnc43)[C@H](F)[C@@H]2O1", 222],
  ["CCC(CC)C(=O)OCO[P@@]1(=O)OC[C@H]2O[C@@H](n3cnc4c(N)ncnc43)[C@H](F)[C@@H]2O[P@](=O)(OCOC(=O)C(CC)CC)OC[C@H]2O[C@@H](n3cnc4c(N)ncnc43)[C@H](F)[C@@H]2O1", 285]
]}

Give Ratio EC50 for "CC(C)OC(=O)OCO[P@]1(=O)OC[C@H]2O[C@@H](n3cnc4c(N)ncnc43)[C@H](F)[C@@H]2O[P@](=O)(OCOC(=O)OC(C)C)OC[C@H]2O[C@@H](n3cnc4c(N)ncnc43)[C@H](F)[C@@H]2O1"
51

---

This listing pairs compounds with measured Ratio EC50.
target: Stimulator of interferon genes protein (Homo sapiens); assay: Potency index, ratio of test compound EC50 to prodrug EC50 for activation of wild-type human STING expressed in HEK293T cells co-expressing IRF3-activated ISRE assessed as IRF3 reporter activation measured after 30 mins by luciferase reporter gene assay; type: cell-based

For orientation, consider the following solved cases.
{"columns": ["Structure Notation", "Ratio EC50"],
 "data": [
  ["Nc1ncnc2c1ncn2[C@@H]1O[C@@H]2CO[P@@](=O)(OCOC(=O)c3ccccc3)O[C@H]3[C@@H](F)[C@H](n4cnc5c(N)ncnc54)O[C@@H]3COP(=O)(O)O[C@H]2[C@H]1F", 31],
  ["CCC(CC)C(=O)OCO[P@]1(=O)OC[C@H]2O[C@@H](n3cnc4c(N)ncnc43)[C@H](F)[C@@H]2OP(=O)(O)OC[C@H]2O[C@@H](n3cnc4c(N)ncnc43)[C@H](F)[C@@H]2O1", 71],
  ["CC(C)(C)C(=O)OCS[P@]1(=O)OC[C@H]2O[C@@H](n3cnc4c(N)ncnc43)[C@H](F)[C@@H]2O[P@](=O)(SCOC(=O)C(C)(C)C)OC[C@H]2O[C@@H](n3cnc4c(N)ncnc43)[C@H](F)[C@@H]2O1", 38]
]}

Please supply the value of reported Ratio EC50 for the item "CC(C)(C)C(=O)OCO[P@]1(=O)OC[C@H]2O[C@@H](n3cnc4c(N)ncnc43)[C@H](F)[C@@H]2OP(=O)(O)OC[C@H]2O[C@@H](n3cnc4c(N)ncnc43)[C@H](F)[C@@H]2O1"
212

---

experiment: Stability in mouse plasma assessed as half life; assay type: ADME, cell-free
Entries and their half-life

{"columns": ["Structure Notation", "half-life"],
 "data": [
  ["CC(C)(C)C(=O)OCO[P@]1(=O)OC[C@H]2O[C@@H](n3cnc4c(N)ncnc43)[C@H](F)[C@@H]2O[P@](=O)(OCOC(=O)C(C)(C)C)OC[C@H]2O[C@@H](n3cnc4c(N)ncnc43)[C@H](F)[C@@H]2O1", "< 2 min"]
]}

// switching to the query compound
Identify half-life associated with the compound "CC(C)(C)C(=O)OCO[P@@]1(=O)OC[C@H]2O[C@@H](n3cnc4c(N)ncnc43)[C@H](F)[C@@H]2O[P@](=O)(OCOC(=O)C(C)(C)C)OC[C@H]2O[C@@H](n3cnc4c(N)ncnc43)[C@H](F)[C@@H]2O1"
< 2 min

---

Listed here are compounds together with their documented pEC50.
biological target: Stimulator of interferon genes protein (Homo sapiens, UniProt Q86WV6); assay: Activation of wild-type human STING expressed in HEK293T cells co-expressing IRF3-activated ISRE assessed as IRF3 reporter activation measured after 30 mins by luciferase reporter gene assay; assay type: cell-based
Sequence (Q86WV6 whole entry): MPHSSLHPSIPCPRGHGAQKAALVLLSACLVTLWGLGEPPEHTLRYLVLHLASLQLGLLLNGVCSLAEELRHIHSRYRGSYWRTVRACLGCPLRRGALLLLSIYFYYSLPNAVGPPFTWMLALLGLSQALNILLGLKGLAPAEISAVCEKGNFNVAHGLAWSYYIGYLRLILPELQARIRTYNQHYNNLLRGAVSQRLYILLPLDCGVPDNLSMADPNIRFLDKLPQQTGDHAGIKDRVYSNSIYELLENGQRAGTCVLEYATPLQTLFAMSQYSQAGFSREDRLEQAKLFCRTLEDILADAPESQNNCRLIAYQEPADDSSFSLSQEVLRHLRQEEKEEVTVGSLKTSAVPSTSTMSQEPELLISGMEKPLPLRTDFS
Answer as the number alone; pEC50 is minus log10 of concentration in mol/L.

# example entries with known answers
{"columns": ["Structure Notation", "Assay Result"],
 "data": [
  ["CC(C)(C)C(=O)OCS[P@@]1(=O)OC[C@H]2O[C@@H](n3cnc4c(N)ncnc43)[C@H](F)[C@@H]2O[P@@](=O)(SCOC(=O)C(C)(C)C)OC[C@H]2O[C@@H](n3cnc4c(N)ncnc43)[C@H](F)[C@@H]2O1", 7.40],
  ["CC(C)(C)C(=O)OCO[P@]1(=O)OC[C@H]2O[C@@H](n3cnc4c(N)ncnc43)[C@H](F)[C@@H]2OP(=O)(O)OC[C@H]2O[C@@H](n3cnc4c(N)ncnc43)[C@H](F)[C@@H]2O1", 6.34],
  ["CC(C)OC(=O)OCO[P@@]1(=O)OC[C@H]2O[C@@H](n3cnc4c(N)ncnc43)[C@H](F)[C@@H]2O[P@](=O)(OCOC(=O)OC(C)C)OC[C@H]2O[C@@H](n3cnc4c(N)ncnc43)[C@H](F)[C@@H]2O1", 6.03]
]}

Given the compound "Nc1nc2c(ncn2[C@@H]2O[C@@H]3COP(=O)(O)O[C@@H]4[C@H](O)[C@@H](COP(=O)(O)O[C@@H]2[C@@H]3O)O[C@H]4n2cnc3c(N)ncnc32)c(=O)[nH]1" , write its reported pEC50.
4.07
